test: chemical genetic growth profiling, strain panel (AID 1159580);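 also: tested at 20 µM; growth read once vehicle control cultures reached saturation at 30 °C; 1 = growth at the plate median or of vehicle wells; lower values mean less growth of the strain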; conditions: S. cerevisiae deletion strains, growth OD, locus YEL003W, strain gim4, stronger effect = lower value
About 2,000 (36%) of roughly 5,500 compounds were called active. Roughly 18% stayed inconclusive and do not appear here. The list shows a part of the results.
property: normalized growth
Just the number, please, no unit after it.

Below, 2 compounds whose answers are already recorded.
• COc1cccc2c1C(=O)c1c(O)c3c(c(O)c1C2=O)C[C@@](O)(C(C)=O)C[C@@H]3O[C@H]1C[C@H](N)[C@H](O)[C@H](C)O1 = 0.989
• Cc1cc(O)cc(=O)o1 = 0.992

# normalized growth lookup, item CC1(C)CC[C@]2(C)CC[C@]3(C)C(=CCC4[C@@]5(C)CC[C@H](O)C(C)(C)C5CC[C@]43C)C2C1 (stereo partly specified)
0.993

###

test: chemical genetic growth profiling, strain panel (AID 1159580); conditions: S. cerevisiae deletion strains, growth OD, locus YNL322C, strain KRE1 (second series), stronger effect = lower value
About 2,000 (36%) of roughly 5,500 compounds were called active. Another 18% or so got no clear call; they are omitted. This is one part of the list. Where a SMILES comes first, the peptide text is derived from it. Bridges are numbered along the chain shown (N, C = ends). [ ]: non-standard residue; d: D form. The star is where a group is joined. ξ: configuration not given here. ξDab(CH2SO3H) = NC(CCNCS(=O)(=O)O)C(=O)O; Heptanoyl(6-Me) = CC(C)CCCCC(=O)*; Dab = NCC[CH](N)C(=O)O
Reported normalized growth values follow for various molecules
API doc: respond with a numeric literal and nothing else, no unit.

Record excerpt, results attached:
- CC(C)(C#N)O[C@@H]1O[C@H](CO)[C@@H](O)[C@H](O)[C@H]1O: 0.993
- C[C@@H]1C(=O)O[C@H]2[C@H]1CC[C@@]1(C)C=CC(=O)[C@@]3(C)O[C@@]213: 1
- CCC(C)C1NC(=O)C(CCNCS(=O)(=O)O)NC(=O)C(NC(=O)C(CCNCS(=O)(=O)O)NC(=O)C(NC(=O)C(CCNCS(=O)(=O)O)NC(=O)CCCCC(C)C)C(C)O)CCNC(=O)C(C(C)O)NC(=O)C(CCNCS(=O)(=O)O)NC(=O)C(CCNCS(=O)(=O)O)NC(=O)C(C(C)CC)NC1=O (configuration not stated) ({Heptanoyl(6-Me)}-[ξDab(CH2SO3H)]T[ξDab(CH2SO3H)][Dab][ξDab(CH2SO3H)]II[ξDab(CH2SO3H)][ξDab(CH2SO3H)]T; lactam 4-C; configuration not given here): 0.983
- C[C@]12CCC(=O)C=C1CCC1C2[C@@H](O)C[C@@]2(C)C1CC[C@]2(O)C(=O)CO (some centres not stated): 0.969

Quick check: normalized growth of C[C@@H]1CC[C@H]2[C@@H](C)C(=O)O[C@@H]3O[C@@]4(C)CC[C@@H]1[C@]32OO4 ?
0.904

Endpoint output: normalized growth of C[C@@H]1CC[C@H]2[C@@H](C)C(O)O[C@@H]3O[C@@]4(C)CC[C@@H]1[C@]32OO4 (some centres not stated) . Value?
0.493

What does the record list as normalized growth for C[C@H]1[C@H](C)CC[C@]2(CO)CC[C@]3(C)C(=CCC4[C@@]5(C)CC[C@H](O)C(C)(C)C5CC[C@]43C)[C@H]12 (some centres not stated) ?
0.99

###

assay: chemical genetic growth profiling, strain panel (AID 1159580); conditions: S. cerevisiae deletion strains, growth OD, locus YNL153C, strain GIM3
Out of some 5,500 compounds screened, about 2,000 (36%) were called active. Not shown: some 18% with an inconclusive outcome. Cut-off read from the data, not from the text of the source: active = normalized growth mostly below about 0.91 (no sharp cut-off); inconclusive = no clear call, values can overlap the other calls; inactive = mostly above about 0.92. The list shows a part of the results.
Parameter call: string, one of active, inactive

Here's what some known entries look like.
- FC(F)(F)c1cnc(N2CCN(C(=S)Nc3ccccc3)CC2)c(Cl)c1: inactive
- Cc1c(Br)sc2ccc(Cl)cc12: inactive
- S=C(NCc1cccnc1)Nc1ccccc1Cl: inactive
- Cn1c(CSCC(=O)Nc2ccccc2)n[nH]c1=S: inactive

Look up the recorded call for O=C1ON=C(c2ccccc2)/C1=C/c1ccc(Cl)cc1 in this test.
active

###

assay: chemical genetic growth profiling, strain panel (AID 1159580); settings: S. cerevisiae deletion strains, growth OD, locus YJL134W, strain LCB3, stronger effect = lower value
Among all 5,500 compounds or so, about 2,000 (36%) were called active. About 18% were inconclusive and are not listed. Some of the results follow.
normalized growth for assorted compounds
Keep the answer to the number alone.

Consider the following illustrative entries.
* C[C@@H]1CC[C@H]2[C@@H](C)C(O)O[C@@H]3O[C@@]4(C)CC[C@@H]1[C@]32OO4 (stereo partly specified) | 0.589
* C[C@@H]1C(=O)O[C@H]2[C@H]1CC[C@@]1(C)C=CC(=O)[C@@]3(C)O[C@@]213 | 1
* O=C(COc1ccc(Cl)cc1)N1CCN(Cc2ccc3c(c2)OCO3)CC1 | 0.977

Query: normalized growth; subject: CC(C)=CCCC1(C)C=Cc2c(O)c3c(c(CC=C(C)C)c2O1)OC12C(=CC4CC1C(C)(C)OC2(C/C=C(\C)C(N)=O)C4=O)C3=O (stereo unspecified)
1

Which normalized growth value belongs to C#C[C@]1(OC(C)=O)CCC2C3CCC4=CC(=O)CC[C@@H]4C3CC[C@@]21C (stereo partly specified) ?
0.973

# query: normalized growth of entry C=C/C(C)=C\CC1C(C)(O)CCC2C(C)(C)CCCC21C (stereo unspecified)
0.057

normalized growth lookup needed for NC(N)=N/N=C/c1c(Cl)cccc1Cl , thanks.
1

Request the reported normalized growth associated with Clc1ccccc1C(c1ccccc1)(c1ccccc1)n1ccnc1
0.0474

Need normalized growth, item COC1=C[C@@H]2[C@@H]3Cc4ccc(OC)c(O)c4[C@]2(CCN3C)CC1=O
0.989

# input compound: O=c1cc(CO)occ1O ; wanted: its normalized growth
1.01

Need normalized growth of COc1c(CC(=O)c2cc3c(cc2O)OC(C)(C)C(O)C3)ccc2c1C=CC(C)(C)O2 (stereo unspecified) , thanks.
0.996

###

List of normalized growth values.
assay: chemical genetic growth profiling, strain panel (AID 1159580);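 also: tested at 20 µM; growth read once vehicle control cultures reached saturation at 30 °C; 1 = growth at the plate median or of vehicle wells; lower values mean less growth of the strain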; details: S. cerevisiae deletion strains, growth OD, locus YGR229C, strain SMI1, stronger effect = lower value
Screen size: about 5,500 compounds; about 2,000 (36%) were called active. About 18% were inconclusive and are not listed. The list shows a part of the results.
Write the number on its own, no unit after it.

Check out these entries, answers already filled in.
• CCCOc1ccccc1-c1nc2n[nH]nc2c(=O)[nH]1 = 1.01
• O=c1cc(CO)occ1O = 1.01
• Cc1cc(OCOc2ccc(Cl)c(C)c2)ccc1Cl = 0.999
• Cn1cnc2c(NCc3ccccc3)nc(NCCO)nc21 = 0.991
• CC(=O)NCc1c(I)c(NC(C)=O)c(I)c(C(=O)O)c1I = 1

Field request: normalized growth | item: N=S(=O)(O)Cc1noc2ccccc12
1.01

###

assay: chemical genetic growth profiling, strain panel (AID 1159580);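 also: tested at 20 µM; growth read once vehicle control cultures reached saturation at 30 °C; 1 = growth at the plate median or of vehicle wells; lower values mean less growth of the strain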; conditions: S. cerevisiae deletion strains, growth OD, locus YER111C, strain swi4, stronger effect = lower value
The whole screen tested about 5,500 compounds, of which about 2,000 (36%) were called active. Inconclusive results (about 18%) are left out. The list shows a part of the results.
property: normalized growth
Keep the answer to the number alone.

Please review the entries below; each comes with its answer.
- Nc1ccc(S(=O)(=O)Nc2cnc3ccccc3n2)cc1: 1.02
- C#C[C@]1(O)CCC2C3CCC4=C(CCC(=O)C4)C3CC[C@@]21C (stereo not given in full): 1
- NNC(=O)c1ccncc1: 1.01
- COC(=O)C[C@H]1C(C)(C)C(=O)[C@@H]2CC3C4=CC(=O)O[C@@H](c5ccoc5)[C@]4(C)CCC3[C@@]1(C)C2=O (stereo not given in full): 0.978
- O=C1c2c(O)cccc2Cc2cccc(O)c21: 1.01
- O=c1[nH]cc(F)c(=O)[nH]1: 0.858
- CC(C)=CCCC1(C)C=Cc2c(O)c3c(c(CC=C(C)C)c2O1)OC12C(=CCCC1C(C)(C)O[C@@]2(C/C=C(\C)C(=O)O)C(=O)O)C3=O (stereo not given in full): 0.91
- COc1cc(C(=O)NCCCCCC(=O)O)cc(OC)c1OC: 0.979

Would you kindly share the measured normalized growth for Cc1ccc(S(=O)(=O)NC(=O)NN2CC3CCCC3C2)cc1 (stereo not given) ?
0.972

What value of normalized growth has been recorded for this entry: C[C@]12CCC(=O)C=C1CCC1C2[C@@H](O)C[C@@]2(C)C1CC[C@]2(O)C(=O)CO (stereo not given in full)
0.981

###

Reported normalized growth values are given for each entry in this list.
test: chemical genetic growth profiling, strain panel (AID 1159580);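 also: tested at 20 µM; growth read once vehicle control cultures reached saturation at 30 °C; 1 = growth at the plate median or of vehicle wells; lower values mean less growth of the strain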; details: S. cerevisiae deletion strains, growth OD, locus YOR080W, strain dia2, stronger effect = lower value
Among all 5,500 compounds or so, about 2,000 (36%) were called active. Not shown: some 18% with an inconclusive outcome. Some of the results follow.
When you answer, write just the number.

- COC(=O)C[C@H]1C(C)(C)C2(O)OC34CC2C(=O)[C@]1(C)C3CC[C@]1(C)C4=CC(=O)O[C@H]1c1ccoc1 (stereo partly drawn): 0.988
- CC1(C)CCC2(C(=O)O)CCC3(C)C(=CCC4C5(C)CCC(O)C(C)(C)C5C(O)CC43C)C2C1 (stereo not drawn): 1.04

Fill in: normalized growth of CC(CC(=O)C1OC1(C)C)C1C(=O)CC2(C)C3=CCC4C(C)(C)C(OC5OCC(O)C(O)C5O)CCC45CC35C(O)CC12C (stereo not drawn) is ___
1.03
